Value source: BindingDB's records for doi:10.1016/j.ejmech.2011.01.042

- ASSAYED_SYSTEM: Sodium- and chloride-dependent GABA transporter 2 (Mus musculus, UniProt P31649)
- Sequence (P31649 whole entry): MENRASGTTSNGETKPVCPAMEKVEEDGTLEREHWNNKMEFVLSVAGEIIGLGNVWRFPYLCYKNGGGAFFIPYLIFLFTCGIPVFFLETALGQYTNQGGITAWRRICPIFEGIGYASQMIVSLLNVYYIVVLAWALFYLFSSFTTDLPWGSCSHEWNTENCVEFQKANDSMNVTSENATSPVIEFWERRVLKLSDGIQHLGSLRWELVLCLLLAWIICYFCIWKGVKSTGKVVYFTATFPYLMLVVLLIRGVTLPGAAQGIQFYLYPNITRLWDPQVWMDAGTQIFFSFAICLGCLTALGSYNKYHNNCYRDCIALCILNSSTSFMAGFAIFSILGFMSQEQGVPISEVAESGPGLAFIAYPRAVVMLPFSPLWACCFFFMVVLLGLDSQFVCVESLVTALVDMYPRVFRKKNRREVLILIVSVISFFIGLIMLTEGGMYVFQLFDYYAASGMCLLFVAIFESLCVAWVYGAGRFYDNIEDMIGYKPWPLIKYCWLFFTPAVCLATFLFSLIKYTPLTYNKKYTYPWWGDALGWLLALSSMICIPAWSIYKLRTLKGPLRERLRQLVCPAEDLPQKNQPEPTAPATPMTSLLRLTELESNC
- PROCEDURE_SUMMARY: Inhibition of mouse GAT2-mediated [3H]GABA uptake expressed in human HEK cells
Provide the reported IC50 of each item.
One number for each entry, in µM.

Cc1ccsc1C(=CCCN(C)C1CCCc2o[nH]c(=O)c21)c1sccc1C (configuration not stated) = 22

For the next question, use this compound.
Reported IC50, compound COc1ccc(C2(O)CCN(CCCn3c4ccccc4c4ccccc43)CC2)cc1 : ____
1.4
